Below, each entry is listed with its recorded growth.
system: MALME-3M melanoma; experiment: NCI-60 one-dose screen, 48 h (100 = growth as untreated, 0 = no growth, -100 = all killed); conditions: 10 µM unless noted
Compounds without any hit were thinned out: in the full panel of roughly 83,000, 20% have a hit.
property_measured: growth (%)

>>> val("COc1ccc(-c2nc(SCCC(C)C)nc(Nc3ccc(F)c(Cl)c3)c2C#N)cc1")
84.2
>>> val("CC1(c2ccc(Cl)cc2)OC(=O)CC(=O)O1")
89
>>> val("O=C(CSC1CCc2ccccc21)N/N=C/c1ccccc1O (stereo not given)")
53.3
>>> val("O=C(Nc1cccc(-n2cc(-c3ccncc3)c(-c3ccc(Cl)c(O)c3)n2)c1)c1ccccc1")
53.1
>>> val("COc1ccc(N=Cc2c(O)ccc3c2oc2cc(Cl)c(O)c(Cl)c23)cc1")
106

Reference source: PubChem BioAssay (NCI)
